These data points were gathered from ChEMBL document CHEMBL5223175.

tested on: 5-8F; experiment: Antiproliferative activity against human 5-8F cells assessed as cell viability at 80 uM incubated for 72 hrs by CCK-8 assay; format: functional; conditions: read-out: Activity
The entries below are paired with their reported viability at 80 µM.
Report the value in % with no unit label.

Observe how each entry below is paired with its result.
{"molecule": "Cn1cc(/C(=N/O)C(=O)Nc2ccc(C(F)(F)F)cc2)c2ccccc21", "viability at 80 µM (%)": 45}
{"molecule": "Cn1cc(/C(=N\\O)C(=O)Nc2ccc(Br)cc2)c2ccccc21", "viability at 80 µM (%)": 22.1}

Exercise: Supply measured viability at 80 µM of Cn1cc(/C(=N\O)C(=O)Nc2cccc(Cl)c2)c2ccccc21 in your reply.
Key: 12.7

Exercise: Supply measured viability at 80 µM of Cn1cc(/C(=N\O)C(=O)Nc2ccc(C(F)(F)F)cc2)c2ccccc21 in your reply.
Key: 10.2

Exercise: Supply measured viability at 80 µM of Cn1cc(/C(=N\O)C(=O)Nc2ccc(Br)c(F)c2)c2ccccc21 in your reply.
Key: 86.8
